Reported melting point is given for each of the following compounds.

• N#Cc1cnc2cc(O)ccc2c1Nc1ccc(Cl)cc1F = 295 to 305 °C

## Input Which melting point value is on record for O=C(Nc1ccccc1)n1nc(-c2ccccc2)cc1Sc1ccccc1 ?
## Output 138 to 140 °C

## Input Which melting point value is on record for CCCC1=C(C(=O)OCC)C(c2cccc(C#N)c2OC)c2c[nH]nc2N1 (stereo not given) ?
## Output 220 to 222 °C

----------
Reported melting point is given for each of the following molecules.

- Oc1cc(Br)c2oc(-c3ccc(O)c(F)c3F)nc2c1: 258 to 260 °C
- COc1nc(NC(=O)NS(=O)(=O)c2ccccc2OC(F)F)nc(NC(C)(C)C)n1: 213 to 214 °C
- COC(=O)c1cc(CCCc2cc3c(=O)[nH]c(N)nc3[nH]2)cs1: 182 to 183 °C
- CC(C)C[C@H](NC(=O)N1CCCCCC1)C(=O)OCc1ccccc1: 79 to 82 °C

## Input Which melting point value is on record for CNc1nc(Br)cn2c(Br)cnc12 ?
## Output 229 °C

## Input Which melting point value is on record for COC(=O)c1cccc(Nc2ccc(OC)cc2)c1 ?
## Output 120 °C

## Input Which melting point value is on record for CC(C)Cc1ccc(C(F)C(=O)O)cc1 (stereo unspecified) ?
## Output 64 to 66 °C

## Input Which melting point value is on record for COc1ccc(Nc2ccc3c(c2)OCC(=O)N3)cc1 ?
## Output 174 to 175 °C

## Input Which melting point value is on record for CC1(C)Cc2c(c(N3CCOCC3)nc3sc4c(N(CCO)CCN5CCOCC5)ncnc4c23)CO1 ?
## Output 112 to 113 °C

## Input Which melting point value is on record for Cn1cccc1C(=O)c1cc([N+](=O)[O-])ccc1Cl ?
## Output 108 to 110 °C

## Input Which melting point value is on record for CC1=NCN2C1=Cc1cncnc1-c1cccc(C(=O)O)c12 ?
## Output 285 to 287 °C
